Protocol text: Pharmacokinetics and renal excretion in healthy subjects
Condition details: both sexes, human, in vivo, iv, 1000 mg
Parameter: AUC (µg·h/mL)
Answers are plain numbers, in µg·h/mL.

// field: AUC; key: CN[C@H]1C(=O)N[C@@H]2Cc3ccc(cc3)Oc3cc4cc(c3O[C@@H]3O[C@H](C(=O)O)[C@@H](O)[C@H](O)[C@H]3NC(=O)CCCCCCCCC(C)C)Oc3ccc(cc3Cl)[C@@H](O)[C@@H]3NC(=O)[C@H](NC(=O)[C@@H]4NC(=O)[C@@H](NC2=O)c2cc(cc(O)c2Cl)Oc2cc1ccc2O)c1ccc(O)c(c1)-c1c(O[C@H]2O[C@H](CO)[C@@H](O)[C@H](O)[C@@H]2O)cc(O)cc1[C@@H](C(=O)NCCCN(C)C)NC3=O [Dalbavancin] ; value = 23800
